Values compiled from paper PMC5749112.

Target chain: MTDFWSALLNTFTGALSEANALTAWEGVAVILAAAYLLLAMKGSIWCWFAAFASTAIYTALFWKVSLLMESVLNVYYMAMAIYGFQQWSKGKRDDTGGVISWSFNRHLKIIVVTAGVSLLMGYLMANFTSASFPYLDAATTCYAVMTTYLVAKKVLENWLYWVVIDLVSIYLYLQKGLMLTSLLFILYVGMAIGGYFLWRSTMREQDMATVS
measured metric: Kd

Cc1ncc(C[n+]2csc(CCO)c2C)c(N)n1 [Thiamine, thiamine]: 12 µM

###

- assayed system: PnuTSw mutant Y188A (Shewanella woodyi, UniProt B1KPL9, Y188A)
- Sequence (B1KPL9 1-212 Y188A): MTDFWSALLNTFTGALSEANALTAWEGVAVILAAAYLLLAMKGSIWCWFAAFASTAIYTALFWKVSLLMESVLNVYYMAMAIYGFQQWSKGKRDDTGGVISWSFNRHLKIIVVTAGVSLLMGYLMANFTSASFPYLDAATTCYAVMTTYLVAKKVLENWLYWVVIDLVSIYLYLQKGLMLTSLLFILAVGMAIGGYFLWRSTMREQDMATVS
- method description: biochemical
measured metric: Kd (µM)

Cc1ncc(C[n+]2csc(CCO)c2C)c(N)n1: 21
